Origin of measurements: patent US20090111801A1

TESTED_TARGET: hα2A receptor (Homo sapiens, UniProt P08913)
Construct: expressed in transfected cells; host or cells: CHO cells, stably transfected; membrane preparation
Sequence (P08913 whole entry): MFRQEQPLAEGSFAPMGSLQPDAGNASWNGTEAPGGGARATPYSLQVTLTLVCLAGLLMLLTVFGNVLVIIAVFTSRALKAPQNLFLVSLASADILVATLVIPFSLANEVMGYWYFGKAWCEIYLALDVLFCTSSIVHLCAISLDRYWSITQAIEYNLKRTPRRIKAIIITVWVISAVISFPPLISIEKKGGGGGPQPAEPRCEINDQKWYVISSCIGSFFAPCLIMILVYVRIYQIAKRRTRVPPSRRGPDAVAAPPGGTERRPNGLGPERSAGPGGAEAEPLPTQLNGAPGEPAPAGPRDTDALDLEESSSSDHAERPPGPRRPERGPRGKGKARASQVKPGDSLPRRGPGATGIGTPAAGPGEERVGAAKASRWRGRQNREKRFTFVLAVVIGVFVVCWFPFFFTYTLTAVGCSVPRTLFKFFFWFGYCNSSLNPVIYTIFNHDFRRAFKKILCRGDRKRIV
METHOD_DESCRIPTION: Radioligand binding experiment for α2A-adrenoceptor ([3H]raulwolscine, CHO cell membranes)
MEASUREMENT_CONDITIONS: [3H]raulwolscine binding, read-out: h-α2A pIC50 (converted)
EXPERIMENTAL_ENDPOINT: IC50
In your response, the unit should come after the numeric value.

1. CSCCn1ccnc(NC2CCN(C/C=C/c3ccccc3)CC2)c1=O = 794 nM
2. CN(C)C(=O)Cn1ccnc(NC2CCN(C/C=C/c3ccccc3)CC2)c1=O = 2510 nM
3. COCCCn1ccnc(N2CCN(C/C(C)=C/c3ccccc3)CC2)c1=O = 316 nM
4. COC(=O)CC(=O)NCc1ccc(Cn2ccnc(NC3CCN(C/C(C)=C/c4ccccc4)CC3)c2=O)cc1 = 126 nM
5. C/C(=C\c1ccccc1)CN1CCN(c2nccn(CC3CCCCC3)c2=O)CC1 = 398 nM
6. CSCCn1ccnc(NC2CCN(C/C(C)=C/c3ccccc3)CC2)c1=O = 39.8 nM
7. C/C(=C\c1ccccc1)CN1CCC(Nc2nccn(Cc3cccc4ccccc34)c2=O)CC1 = 100 nM
8. C/C(=C\c1ccccc1)CN1CCC(Nc2nccn(CC(=O)N(C)C3CCCCC3)c2=O)CC1 = 79.4 nM

Then there is this molecule:
Challenge: Given C/C(=C\c1ccccc1)CN1CCC(Nc2nccn(-c3ccccn3)c2=O)CC1 [6-10] , state its recorded IC50.
Response given: 12.6 nM
